Tested on: V-ATPase
Assay: V-ATPase ELISA (Human V-Type Proton ATPase ELISA kit) on treated MDAMB231 cells
Type: cell-based
Settings: 100 nM (0.1 μM)/10,000 cells, 48 hours
The following molecules are listed with their measured reduction of V-ATPase (%) values.

- molecule: "COc1cc2c(OCCCCN3CCOCC3)c3c(c(-c4ccc5c(c4)OCO5)c2cc1OC)C(=O)OC3"
  tested-target: "V-ATPase"
  reduction of V-ATPase (%): 21.0
- molecule: "O[C@H]1[C@H](O)COC(Oc2ccc(-c3ccc4c(c3)OCO4)c3ccccc23)[C@@H]1O (stereo partly drawn)"
  tested-target: "V-ATPase"
  reduction of V-ATPase (%): 61.0
- molecule: "O=C(CN1CCNCC1)Nc1ccc(-c2ccc3c(c2)OCO3)c2ccccc12"
  tested-target: "V-ATPase"
  reduction of V-ATPase (%): 28.05
- molecule: "c1ccc2c(-c3ccc4c(c3)OCO4)ccc(OCCCCNC3CCCCC3)c2c1"
  tested-target: "V-ATPase"
  reduction of V-ATPase (%): 6.3
- molecule: "c1cc2c(cc1-c1ccc(OCCCCCCNC3CCCCC3)c3c1CCCC3)OCO2"
  tested-target: "V-ATPase"
  reduction of V-ATPase (%): 77.42
- molecule: "CCOC(=O)c1c(C(=O)OCC)c(-c2ccc3c(c2)OCO3)c2cc(OC)c(OC)cc2c1OC1OCC(OC)C(OC)C1O (stereo not drawn)"
  tested-target: "V-ATPase"
  reduction of V-ATPase (%): 18.2

###

Experiment: Neutral Red toxicity assay, uninfected cultures
Format: cell-based
Conditions: African green monkey, Vero 76 cells (uninfected monolayers), cell-inhibitory
Reported CC50 values for a set of compounds
readout-name: CC50 (mg/L)

- compound: "COC1COC(Oc2ccc(-c3ccc4c(c3)OCO4)c3ccccc23)C(O)C1OC (centres unmarked)"
  comparison-operator: "="
  test-result: 2.5
- compound: "COc1cc2c(OC3OCC(OC)C(OC)C3O)c3c(c(-c4ccc5c(c4)OCO5)c2cc1OC)C(=O)OC3 (centres unmarked)"
  comparison-operator: "<"
  test-result: 0.1
- compound: "O[C@H]1[C@H](O)COC(Oc2ccc(-c3ccc4c(c3)OCO4)c3ccccc23)[C@@H]1O (some centres unmarked)"
  comparison-operator: "="
  test-result: 32
- compound: "CCOC(=O)c1c(C(=O)OCC)c(-c2ccc3c(c2)OCO3)c2cc(OC)c(OC)cc2c1OC1OCC(OC)C(OC)C1O (centres unmarked)"
  comparison-operator: "="
  test-result: 40
- compound: "COc1cc2c(OCCCCN3CCOCC3)c3c(c(-c4ccc5c(c4)OCO5)c2cc1OC)C(=O)OC3"
  comparison-operator: "="
  test-result: 0.34

###

Tested on: V-ATPase
Assay: V-ATPase ELISA (Human V-Type Proton ATPase ELISA kit) on treated MDAMB231 cells
Assay type: cell-based
Details: 100 nM (0.1 μM)/10,000 cells, 48 hours

- molecule: "C=CCNCCCCCCOc1ccc(-c2ccc3c(c2)OCO3)c2c1CCCC2"
  reduction of V-ATPase (%): 16.2
- molecule: "c1ccc2c(-c3ccc4c(c3)OCO4)ccc(OCCCCN3CCOCC3)c2c1"
  reduction of V-ATPase (%): 76.16
- molecule: "COc1cc2c(OC3OCC(OC)C(OC)C3O)c3c(c(-c4ccc5c(c4)OCO5)c2cc1OC)C(=O)OC3 (centres unmarked)"
  reduction of V-ATPase (%): 13.31
- molecule: "c1ccc(COc2ccc(-c3ccc4c(c3)OCO4)c3cccnc23)cc1"
  reduction of V-ATPase (%): 61.34
- molecule: "COc1ccc(-c2ccc(OCCN3CCOCC3)c3ccccc23)cc1OC"
  reduction of V-ATPase (%): 16.57
- molecule: "COc1cccc(-c2ccc(OCCN3CCOCC3)c3ccccc23)c1"
  reduction of V-ATPase (%): 18.27
- molecule: "COc1cc2c(OC(=O)c3cccn3C)c3c(c(-c4ccc5c(c4)OCO5)c2cc1OC)C(=O)OC3"
  reduction of V-ATPase (%): 15.33
- molecule: "COC1COC(Oc2ccc(-c3ccc4c(c3)OCO4)c3ccccc23)C(O)C1OC (centres unmarked)"
  reduction of V-ATPase (%): 15.6
